Recorded SERT Ki/NET Ki for the following compounds
target: hSERT (Homo sapiens); construct: expressed in transfected cells; host or cells: HEK-293 derived cell line, stably transfected; membrane preparation; assay: hSERT binding assay (Assay 1); details: ratio of SERT Ki to NET Ki from binding assays

Before answering, review these 5 worked examples.
COc1ccc(Cl)cc1OC(c1ccccc1)C1CCNC1 (stereo not drawn) [29-22] ... 2.5
Fc1cc(F)cc(C(Oc2cc(Cl)ccc2F)C2CCNC2)c1 (stereo not drawn) [32-2] ... 2.5
Clc1ccc(Cl)c(OC(c2ccccc2Cl)C2CCNC2)c1 (stereo not drawn) [32-7] ... 0.6
CCc1cc(F)ccc1OC(c1ccccc1)C1CCNC1 (stereo not drawn) [27-23] ... 0.8
Clc1cc(Br)cc(OC(c2ccccc2)C2CCNC2)c1 (stereo not drawn) [34-11] ... 0.1

Please find the next compound below.
Kindly state the measured SERT Ki/NET Ki obtained for Fc1cc(F)cc(C(Oc2cc(Cl)ccc2F)C2CCNC2)c1 (stereo not drawn) [30-2] with hSERT (Homo sapiens).
25

====

molecular target: hSERT (Homo sapiens, UniProt P31645); construct: expressed in transfected cells; host or cells: HEK-293 derived cell line, stably transfected; membrane preparation; test: hSERT binding assay (Assay 1); details: ratio of SERT Ki to NET Ki from binding assays
Sequence (P31645 whole entry): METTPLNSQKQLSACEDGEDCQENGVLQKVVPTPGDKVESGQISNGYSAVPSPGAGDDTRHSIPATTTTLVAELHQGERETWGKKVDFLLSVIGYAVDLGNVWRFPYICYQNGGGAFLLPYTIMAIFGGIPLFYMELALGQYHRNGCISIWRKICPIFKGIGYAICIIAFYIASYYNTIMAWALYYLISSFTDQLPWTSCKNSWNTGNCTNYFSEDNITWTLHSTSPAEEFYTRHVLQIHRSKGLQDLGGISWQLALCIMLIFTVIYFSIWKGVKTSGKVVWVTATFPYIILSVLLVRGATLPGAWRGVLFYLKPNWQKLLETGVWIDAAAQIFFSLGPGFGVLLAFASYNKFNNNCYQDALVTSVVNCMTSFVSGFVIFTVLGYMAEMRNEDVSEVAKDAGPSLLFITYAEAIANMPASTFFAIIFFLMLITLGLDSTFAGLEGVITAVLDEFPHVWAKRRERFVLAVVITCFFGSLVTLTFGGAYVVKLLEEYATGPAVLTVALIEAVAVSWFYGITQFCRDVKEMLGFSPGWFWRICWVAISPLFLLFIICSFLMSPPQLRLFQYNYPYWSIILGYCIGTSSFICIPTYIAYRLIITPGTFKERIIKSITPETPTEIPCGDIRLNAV
Criterion: SERT Ki/NET Ki strictly less than 3. Met: y. Not met: n.

COc1ccc(F)cc1O[C@@H](c1ccccc1)[C@H]1CCNC1 ... n
Fc1cc(Cl)cc(OC(c2ccccc2)C2CCNC2)c1 (stereo not shown) [34-5] ... y
Cc1cc(F)ccc1OC(c1ccccc1)C1CCNC1 (stereo not shown) ... y
Cc1cccc(F)c1O[C@@H](c1ccccc1)[C@H]1CCNC1 ... n
COc1cc(F)ccc1OC(c1ccccc1)C1CCNC1 (stereo not shown) ... n

Could you please tell me whether SERT Ki/NET Ki recorded for Cc1ccc(OC(c2ccccc2)C2CCNC2)c(Cl)c1 (stereo not shown) is less than 3?
y

SERT Ki/NET Ki under 3? Item: Fc1ccc(C(Oc2cc(Cl)ccc2Cl)C2CCNC2)cc1 (stereo not shown)
n

Dear reviewer, please state whether COc1cccc(C(Oc2cccc(Cl)c2Cl)C2CCNC2)c1 (stereo not shown) has SERT Ki/NET Ki strictly beneath 3.
y

# TODO verify SERT Ki/NET Ki < 3 strictly for this compound: Cc1ccc(OC(c2ccccc2)C2CCNC2)c([N+](=O)[O-])c1 (stereo not shown)
y

Is 3 strictly greater than the compound's reported SERT Ki/NET Ki? compound: COc1ccc(F)c(OC(c2ccccc2Cl)C2CCNC2)c1 (stereo not shown)
n

Take the compound Cc1ccc(Cl)cc1OC(c1ccccc1)C1CCNC1 (stereo not shown) and say whether its SERT Ki/NET Ki is less than 3.
y

Below 3 on SERT Ki/NET Ki? Entry CCc1cc(F)ccc1OC(c1cc(F)cc(F)c1)C1CCNC1 (stereo not shown)
n

Lab note: SERT Ki/NET Ki threshold 3. Does this compound come in strictly under it? Fc1cc(F)cc(C(Oc2cc(Cl)ccc2F)C2CCNC2)c1 (stereo not shown) [30-1]
n

Does `NC(=O)c1cccc([C@H](Oc2cc(Cl)ccc2Cl)[C@H]2CCNC2)c1` have SERT Ki/NET Ki strictly under 3?
y

# strict comparison: is reported SERT Ki/NET Ki < 3? input = `Fc1cccc(Cl)c1O[C@@H](c1ccccc1)[C@H]1CCNC1`
n

====

biological target: hSERT (Homo sapiens, UniProt P31645); construct: expressed in transfected cells; host or cells: HEK-293 derived cell line, stably transfected; membrane preparation; experiment: hSERT binding assay (Assay 1); conditions: ratio of SERT Ki to NET Ki (binding)
We use 1 as the dividing line for SERT Ki/NET Ki: on or above the line is label 1, below is label 0.

N#Cc1cccc([C@H](Oc2c(F)ccc(F)c2Cl)[C@H]2CCNC2)c1 ... label 1
Cc1cc(F)cc(C(Oc2cc(Cl)cc(Cl)c2)C2CCNC2)c1 (stereo not drawn) ... label 0
Fc1cc(F)cc(C(Oc2c(F)ccc(Cl)c2F)C2CCNC2)c1 (stereo not drawn) [41-5] ... label 1

Is reported SERT Ki/NET Ki greater than or equal to 1 here: `Cc1ccc(F)c(O[C@H](c2ccccc2)[C@@H]2CCNC2)c1Cl`
label 0

Textbook exercise: given the entry `Cc1ccc(Cl)c(O[C@H](c2cccc(CO)c2)[C@H]2CCNC2)c1Cl` , state whether its SERT Ki/NET Ki is greater than or equal to 1.
label 1

====

target: hNET (Homo sapiens, UniProt P23975); construct: expressed in transfected cells; host or cells: HEK-293 derived cell line, stably transfected; membrane preparation; experiment: hNET binding assay (Assay 1); conditions: hNET binding; the tables list only compounds with NET pKi≧8; read-out: NET pKi (converted)
Sequence (P23975 whole entry): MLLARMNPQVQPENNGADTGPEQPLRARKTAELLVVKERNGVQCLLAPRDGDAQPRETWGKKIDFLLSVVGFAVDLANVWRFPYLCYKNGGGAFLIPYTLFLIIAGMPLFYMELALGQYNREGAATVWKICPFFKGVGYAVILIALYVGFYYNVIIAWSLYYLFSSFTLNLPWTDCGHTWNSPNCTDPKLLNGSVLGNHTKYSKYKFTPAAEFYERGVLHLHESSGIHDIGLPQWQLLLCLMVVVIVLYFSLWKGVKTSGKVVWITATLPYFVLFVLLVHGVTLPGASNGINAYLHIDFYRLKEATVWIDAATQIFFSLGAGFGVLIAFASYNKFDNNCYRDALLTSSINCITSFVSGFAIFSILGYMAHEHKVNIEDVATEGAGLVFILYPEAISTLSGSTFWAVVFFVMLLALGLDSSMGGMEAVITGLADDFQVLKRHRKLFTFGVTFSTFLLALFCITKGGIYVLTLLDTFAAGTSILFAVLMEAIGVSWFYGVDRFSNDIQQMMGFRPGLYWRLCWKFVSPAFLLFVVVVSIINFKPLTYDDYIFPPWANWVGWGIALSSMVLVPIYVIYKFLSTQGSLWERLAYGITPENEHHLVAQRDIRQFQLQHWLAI
ASSAY_READOUT: log10 Ki (log10 of the value in nM)
For clarity, the numbers are log10 values of Ki expressed in nM.

Check out these entries, answers already filled in.
NC(=O)c1cccc(C(Oc2c(F)cc(F)cc2F)C2CCNC2)c1 (stereo not shown) ... 0.90
Fc1cc(Cl)c(O[C@@H](c2ccccc2)[C@H]2CCNC2)c(Cl)c1 ... 0.80
Fc1cc(F)cc([C@@H](Oc2c(Cl)c(F)cc(F)c2Cl)[C@@H]2CCNC2)c1 ... -0.60

I have this molecule here, Fc1cc(F)c(Cl)c(OC(c2ccccc2)C2CCNC2)c1F (stereo not shown) [47-7] , and I need its recorded log10 Ki.
-0.30

Any idea what log10 Ki was measured for `Fc1c(F)c(F)c(O[C@@H](c2ccccc2)[C@H]2CCNC2)c(F)c1F` ?
0.60

Field request: log10 Ki | item: Fc1cc(F)c(Cl)c(OC(c2ccccc2Cl)C2CCNC2)c1Cl (stereo not shown)
0.90

For `CCc1cc(F)cc(F)c1O[C@@H](c1ccccc1)[C@H]1CCNC1` , what is its reported log10 Ki?
-0.20

Name the reported log10 Ki value associated with the molecule Fc1cc(F)cc(C(Oc2c(Cl)c(F)cc(F)c2Cl)C2CCNC2)c1 (stereo not shown)
-0.30

What log10 Ki value was documented for this molecule, COC(=O)c1c(F)c(F)c(F)c(F)c1OC(c1ccccc1)C1CCNC1 (stereo not shown) ?
0.50

Look up log10 Ki for this molecule: `Fc1cc(F)cc([C@H](Oc2c(Cl)c(F)cc(F)c2Cl)[C@H]2CCNC2)c1`
-0.40

For the molecule shown here, Fc1cc(F)c(Cl)c(OC(c2ccccc2)C2CCNC2)c1F (stereo not shown) [47-6] , give the reported log10 Ki.
-0.40

Can you look up the measured log10 Ki of `CC(=O)c1cc(F)cc(F)c1O[C@@H](c1ccccc1)[C@H]1CCNC1` for me?
0.20

====

target: hSERT (Homo sapiens); construct: expressed in transfected cells; host or cells: HEK-293 derived cell line, stably transfected; membrane preparation; experiment: hSERT binding assay (Assay 1); conditions: ratio of SERT Ki to NET Ki (binding)
Reported SERT Ki/NET Ki values for the following compounds.
I only need the number, thanks.

Here's what some known entries look like.
Cc1ccc(Cl)c(OC(c2ccccc2)C2CCNC2)c1Cl (stereo not shown) [40-33] ... 3.2
COc1cc(Cl)c(F)cc1OC(c1cc(F)cc(F)c1)C1CCNC1 (stereo not shown) ... 1.3
Cc1ccc(Cl)c(OC(c2ccccc2Cl)C2CCNC2)c1Cl (stereo not shown) ... 0.4
Fc1ccc(Cl)c(F)c1OC(c1ccccc1)C1CCNC1 (stereo not shown) [40-14] ... 0.4

Give its SERT Ki/NET Ki value. Item: Cc1ccc(Cl)c(OC(c2cc(F)cc(F)c2)C2CCNC2)c1F (stereo not shown)
7.9

Report SERT Ki/NET Ki for Cc1c(F)ccc(OC(c2ccccc2)C2CCNC2)c1F (stereo not shown) please.
0.3

SERT Ki/NET Ki lookup needed for Cc1ccc(Cl)c(OC(c2ccc(Cl)cc2)C2CCNC2)c1Cl (stereo not shown) , thanks.
0.6

// returns reported SERT Ki/NET Ki for input Fc1ccc(Cl)c(Cl)c1OC(c1ccccc1)C1CCNC1 (stereo not shown) [40-13]
0.3

Which value of SERT Ki/NET Ki has been reported for Fc1ccc(C(Oc2cc(Cl)cc(Cl)c2)C2CCNC2)cc1 (stereo not shown) in the records?
0.1

Can you share its SERT Ki/NET Ki? I mean this compound: Fc1cc(F)cc(C(Oc2c(Cl)ccc(Cl)c2Cl)C2CCNC2)c1 (stereo not shown) [41-13]
2

====

Molecular target: hNET (Homo sapiens)
Construct: expressed in transfected cells; host or cells: HEK-293 derived cell line, stably transfected; membrane preparation
Assay: hNET binding assay (Assay 1)
Details: hNET binding; read-out: NET pKi (converted)
Excerpt: Membrane radioligand binding assays were used to measure competitive inhibition of labeled ligand (^3H-citalopram or ^3H-nisoxetine or ^3H-WIN35428) binding to membranes prepared from cells expressing the respective human recombinant transporter (hSERT or hNET or hDAT) in order to determine the pKi values of test compounds at the transporters. […]
ASSAY_READOUT: Ki (nM)
// note: answer is a bare numeric in nM

Solved cases below.
Cc1ccc(F)c(O[C@H](c2ccccc2)[C@@H]2CCNC2)c1F [40-24] ... 1.58
Fc1ccc(Cl)c(Cl)c1OC(c1ccccc1)C1CCNC1 (stereo not shown) [40-13] ... 0.2
N#Cc1cccc([C@H](Oc2c(F)ccc(F)c2Cl)[C@@H]2CCNC2)c1 [41-34] ... 7.94
Cc1cc(F)cc(C(Oc2cc(Cl)cc(Cl)c2)C2CCNC2)c1 (stereo not shown) [35-19] ... 6.31
COc1ccc(F)c(F)c1O[C@H](c1ccccc1)[C@@H]1CCNC1 [40-8] ... 1
Fc1ccc(Cl)c(Cl)c1OC(c1ccccc1)C1CCNC1 (stereo not shown) [40-12] ... 0.251

Entry Fc1ccc(O[C@@H](c2ccccc2)[C@H]2CCNC2)c(F)c1F [36-1] has what Ki?
6.31

Request the reported Ki associated with Cc1ccc(Cl)c(OC(c2ccc(C#N)cc2)C2CCNC2)c1Cl (stereo not shown) [41-15]
1

Data request, read-out Ki, for Cc1ccc(Cl)c(O[C@@H](c2cc(F)cc(F)c2)[C@@H]2CCNC2)c1Cl (racemic) [41-25]
6.31

Quick one: Ki of Cc1cc(F)cc([C@@H](Oc2c(Cl)ccc(C)c2Cl)[C@@H]2CCNC2)c1 (racemic) [41-23] ?
1.58

// lookup Ki for Fc1ccc(Cl)c(F)c1OC(c1ccccc1)C1CCNC1 (stereo not shown) [40-14]
0.501

# input compound: Fc1c(Cl)ccc(O[C@@H](c2ccccc2)[C@H]2CCNC2)c1F [36-3] ; wanted: its Ki
6.31

# get_value(readout='Ki', item= Cc1ccc(Cl)c(OC(c2ccccc2Cl)C2CCNC2)c1Cl (stereo not shown) [41-18] )
1.58

Param item = Cc1ccc(F)c(OC(c2cc(F)cc(F)c2)C2CCNC2)c1Cl (stereo not shown) [41-29] ; retrieve measured Ki.
0.251

Item under review: Fc1cc(F)cc(C(Oc2c(Cl)ccc(Cl)c2Cl)C2CCNC2)c1 (stereo not shown) [41-11] . Reported Ki?
0.398

Entry under review: Cc1ccc(OC(c2ccccc2)C2CCNC2)c(F)c1F (stereo not shown) [36-5] . Reported Ki?
1.26

Which measured Ki value corresponds to Fc1cc(F)cc(C(Oc2ccc(F)c(F)c2F)C2CCNC2)c1 (stereo not shown) [37-1] ?
5.01
